protocol: yeast display, Sf9 membrane polyspecificity reagent, FACS + sequencing; frameworks hold sequencing errors
valueType: polyreactivity (PSR sort gate)

QVQLVESGGGLVQAGGSLRLSCAASGFIFIKYAMGWYRQAPGKERELVAGITRSGSSTYYADSVKGRFTISRDNAKNTVYLQMNSLKPEDTAVYYCAAASGSSVGRYGYWGQGTQVTVSS
high polyreactivity
QVQLVESGGGLVQAGGSLRLSCAASGFIYSSNAMGWYRQAPGKERELVAAISSSGGRTYYAVSVKGRFTISRDNAKNTVYLQMNRLKPEDTAVYYCNAYPRSRGSANDWGQGTQVPVSS
high polyreactivity

###

protocol: yeast display, Sf9 membrane polyspecificity reagent, FACS + sequencing; frameworks hold sequencing errors
valueType: polyreactivity (PSR sort gate)

Examples with answers:
QLQLVETGGGLVQAGGSLRLSCAASGYIFVYNDMGWSRQAPGKERELVAAITFSGGITYYADSVKGRFTISRDNAKNTVYLQMNSLKPEDTAVYYCAAADYWFYYGYYLTMDYWGQGTQVTVSS
low polyreactivity
QVQLVESGGGLVQAGGSLRLSCAASGSTFARNAMGWYRPAPGKERELVAAITNAGDTNYADSVKGRFTISRDNAKNTVYLQMNSLKPEDTAVYYCAADTRFYSGRGTVSGDYWGQGTQVTVSS
low polyreactivity
QVQLVESGGGLVQAGGSLRLSCAASGSIFVLNAMGWSRQAPGKETELVAAISYSGTGTYYADSVKGRFTISRDNAKNTVYLQMNSLKPEDTAVYDCAADYYYRYRIYDYWGQGTQVTLSS
low polyreactivity
QVQLVESGGGLVQAGGSLRLSCAASGSTIRYYAMGWYRQAPGKERELVAAITKSGGSTYYADSVKGRFTISRDNAKKTVYLQMNSLKPEDTAVYYCAAVRRWYYPALSEHDYWGQGTQVTVSS
low polyreactivity
QVQLVESGGGLVQAGGSLRLSCAASGFTFSFYAMGRYRQAPGKEREYVAAITNSGGSTYYADSVKGRFTISRDNAKNTVYLQMNSLKPEDTGVYYCASKRAWPGYFTYYSWGQGTQVTVSS
high polyreactivity

Exercise: For QVQLVESGGGLVQAGGSLRLSCAASGSIFYLYAMGWYRQAPGKERELVATISTGSGRTYYADSVKGRFTISRDNAKNTVYLQMNSLKPEDTAVYYCAASRTLRKHRYEYWGQGTEVTVSS , what is its reported polyreactivity (PSR sort gate)?
Solution: high polyreactivity

Exercise: For QVQLVESGGGLVQAGGSLRLSCAASGRTFDDYAMGGYSQAPGKERELVAAISWSGSSTYYADSVKGRFTISRDNAKNTVYLQMNSLKPEDTAVYYCAADSIRTLLTGNTVYIWYGYWGQGNQVTVSS , what is its reported polyreactivity (PSR sort gate)?
Solution: low polyreactivity

Exercise: For QVQLVESGGGLVQAGGSLRLSCAASGRIFGYYAMGWSRQAPGKERELVATITFGGGSTYYADSVKGRFTISRDNAKNTVYFQMNSLKPEDTAVYYCAADSGYLGIYGDEYSWGQGTQVTVSS , what is its reported polyreactivity (PSR sort gate)?
Solution: low polyreactivity

Exercise: For QVQLVESGGGLGHAGGSLRLSCAASGSIFFWYAMGWYRQAPGKERELVAAITQRTGSTYYADSVKGRFTISRDNAKNTVYLQMNSLKPEDTAVYYCAGKRWRRSFTGNYWGLGTQVTVSS , what is its reported polyreactivity (PSR sort gate)?
Solution: high polyreactivity

Exercise: For QVQIVESGGGLVQAGGSLRLSCAASGITFSSYAMGWYRQAPGKERELVAAITRTGGRTYYADSVKGRFTISRDNAKNTVYLQMNSLKPEDTAVYYCAAYYIAYYYWGQGTQVTVSS , what is its reported polyreactivity (PSR sort gate)?
Solution: high polyreactivity

Exercise: For QVQLVESGGGLVQAGGSLRLSCAASGRIFYPYAMGWYRQAPGKERELVAAISRSGGSTYYADSVKGRFTISRDNAKNTVYLQMNSLKPEDTAVYYCAKVTSSGDAVLTQIPYGYDYWGQGTQVTVSS , what is its reported polyreactivity (PSR sort gate)?
Solution: low polyreactivity

Exercise: For QVQLVESGGGLVQAGGSLRLSCAASGRIFVVYAMGGYRQAPGKERDLVASISRGGRTYYADSVKGRFTISRDNAKNTVYLQMNSLKPEDTAVYYCAVVVYLKNRDLFDYWGQGTQVTVSS , what is its reported polyreactivity (PSR sort gate)?
Solution: low polyreactivity

Exercise: For QVQLVESGGGLVQAGGSLRLSCAASGSIFQPYAMGWYRQAPGKERELVAAINGRGGSTHYADSVKGRFTISRDNAKNTVYLQMNSLKPEDTAVYYCAATWAYPGSGYVYFYGNDYWGQGTQVTVSS , what is its reported polyreactivity (PSR sort gate)?
Solution: high polyreactivity

Exercise: For QDQLVESGGGLVQAGGSLRLSCAASGFTFGYYPMGWSRQAPGKERELVAAITSSGGRTYYADSVKGRFTISRDYGKNTVYLQMNSLKPEDTAVYYCATAYRPDYGYWGQGTQVTRSS , what is its reported polyreactivity (PSR sort gate)?
Solution: high polyreactivity
